Reported values of pIC50 for individual entries
System: IL-4
Assay procedure: Cytokine suppression using human peripheral blood mononuclear cells: IL-4
Type: cell-based
Assay conditions: human PBMC, CD3 antibody and CD28 antibody; read-out: IL-4 Inhibitory Activity, Human PBMC (Test Example 4)
pIC50: −log10 of the molar value.

>  <Molecule>
CCOc1cc([C@@H](CS(C)(=O)=O)N2C(=O)c3cccc(NC(C)=O)c3C2=O)ccc1OC [apremilast, reference compound]

>  <Target or system>
IL-4

>  <pIC50>
≤ 5.30

$$$$

// returns reported pIC50 for input CC(C)(O)C(F)(F)Oc1ccc(-c2nccs2)c2oc(N3CC4CC(C3)N4)nc12
> 6.30

* * *

Reported values of pIC50 for individual entries
Test system: IL-4
Assay procedure: Cytokine suppression using whole human blood: IL-4 (CytoStim and CD28 antibody stimulus)
Type: cell-based
Assay conditions: read-out: IL-4 Inhibitory Activity, Human Whole Blood (Test Example 3)
pIC50: −log10 of the molar value.

>  <Compound>
CCOc1cc([C@@H](CS(C)(=O)=O)N2C(=O)c3cccc(NC(C)=O)c3C2=O)ccc1OC [apremilast, reference compound]

>  <Reported measurement>
≤ 5.30

$$$$

Here is the next item to consider.
// returns reported pIC50 for input CC(C)(O)C(F)(F)Oc1ccc(-c2nccs2)c2oc(N3CC4CC(C3)N4)nc12
> 6.30

* * *

Test system: TGF-β
Assay procedure: TGF-β inhibitory activity using THP1 cells differentiated into macrophages
Format: cell-based
Assay conditions: Homo sapiens, THP-1, 7 h, read-out: TFG-β Inhibitory Activity (Test Example 6)
Measured quantity: IC50

// returns reported IC50 for input CCOc1cc([C@@H](CS(C)(=O)=O)N2C(=O)c3cccc(NC(C)=O)c3C2=O)ccc1OC [apremilast, reference compound]
> 1000 nM

* * *

System: IL-23
Assay procedure: Cytokine suppression using human peripheral blood mononuclear cells: IL-23
Format: cell-based
Assay conditions: human PBMC, lipopolysaccharide 1 ng/mL; read-out: IL-23 Inhibitory Activity, Human PBMC (Test Example 4)
Measured quantity: IC50

>  <Compound>
CC(C)(O)C(F)(F)Oc1ccc(-c2nccs2)c2oc(N3CC4CC(C3)N4)nc12 [Example 248]

>  <IC50>
< 0.5 µM

$$$$

Here is the next item to consider.
// returns reported IC50 for input CCOc1cc([C@@H](CS(C)(=O)=O)N2C(=O)c3cccc(NC(C)=O)c3C2=O)ccc1OC [apremilast, reference compound]
≥ 5 µM

* * *

System: HCT-116 (colorectal cancer)
Assay procedure: Antitumor activity: growth inhibition of HCT-116
Type: cell-based
Assay conditions: Homo sapiens, 120 h; HCT-116, culturing for 5 days; read-out: 50% growth inhibitory concentration
Reported values of IC50 for individual entries

>  <Molecule>
CC(C)(O)C(F)(F)Oc1ccc(-c2nccs2)c2oc(N3CC4CC(C3)N4)nc12

>  <Reported measurement>
< 10 µM

$$$$

// returns reported IC50 for input CCOc1cc([C@@H](CS(C)(=O)=O)N2C(=O)c3cccc(NC(C)=O)c3C2=O)ccc1OC [apremilast, reference compound]
≥ 50 µM

* * *

Test system: A549 (lung cancer)
Assay procedure: Antitumor activity: growth inhibition of A549
Type: cell-based
Assay conditions: Homo sapiens, 120 h; A549, culturing for 5 days; read-out: 50% growth inhibitory concentration
Reported values of IC50 for individual entries

>  <Molecule>
CCOc1cc([C@@H](CS(C)(=O)=O)N2C(=O)c3cccc(NC(C)=O)c3C2=O)ccc1OC [apremilast, reference compound]

>  <IC50>
≥ 50 µM

$$$$

Here is the next item to consider.
// returns reported IC50 for input CC(C)(O)C(F)(F)Oc1ccc(-c2nccs2)c2oc(N3CC4CC(C3)N4)nc12
< 10 µM

* * *

System: oxazolone-induced auricle edema, BALB/c mice
Assay procedure: Mouse delayed type hypersensitivity (DTH) model (topical)
Format: in vivo
Assay conditions: 20 μL applied to auricle, 24 hours after application
Measured quantity: Mouse DTH Model (Test Example 11), Topical: edema suppression rate

>  <Compound>
CC(C)(O)C(F)(F)Oc1ccc(-c2nccs2)c2oc(N3CC4CC(C3)N4)nc12

>  <Reported measurement>
A (A: 60% or more)

$$$$
>  <Compound>
FC(F)(F)Oc1ccc(-c2nccs2)c2oc(N3CC4CC(C3)N4)nc12

>  <Reported measurement>
A (A: 60% or more)

$$$$

* * *

Reported values of IC50 for individual entries
System: TNFα
Assay procedure: Cytokine suppression using human peripheral blood mononuclear cells: TNFα
Assay type: cell-based
Assay conditions: human PBMC, lipopolysaccharide 1 ng/mL; read-out: TNFα Inhibitory Activity, Human PBMC (Test Example 4)

Use the examples below as a reference point.
>  <Molecule>
N#Cc1ccc(Oc2ccc3c(c2)COB3O)cc1 [crisaborole, reference compound]

>  <Reported measurement>
> 100 nM

$$$$
>  <Molecule>
CC(C)(O)C(F)(F)Oc1ccc(-c2nccs2)c2oc(N3CC4CC(C3)N4)nc12

>  <Reported measurement>
< 10 nM

$$$$
>  <Molecule>
CC(O)C(F)(F)Oc1ccc(-c2nccs2)c2oc(N3CC4CC(C3)N4)nc12 (single isomer, unassigned)

>  <Reported measurement>
< 10 nM

$$$$

Here is the next item to consider.
// returns reported IC50 for input OC(c1ccc(-c2nccs2)c2oc(N3CC4CCC(C3)N4)nc12)C(F)(F)F (stereo not shown)
< 10 nM

* * *

System: CEM-C1 (blood cancer (leukemia))
Assay procedure: Antitumor activity: growth inhibition of CEM-C1
Type: cell-based
Assay conditions: 120 h; CEM-C1, culturing for 5 days; read-out: 50% growth inhibitory concentration
Reported values of IC50 for individual entries

>  <Compound>
CCOc1cc([C@@H](CS(C)(=O)=O)N2C(=O)c3cccc(NC(C)=O)c3C2=O)ccc1OC [apremilast, reference compound]

>  <Reported measurement>
≥ 50 µM

$$$$

Here is the next item to consider.
// returns reported IC50 for input CC(C)(O)C(F)(F)Oc1ccc(-c2nccs2)c2oc(N3CC4CC(C3)N4)nc12
< 10 µM
